The origin of these recorded values is patent US20200129450A1.

# procedure text: MTT assay cytotoxicity, cancer cell lines (summary)
# Assay type: cell-based
# condition: human cancer cell lines (AGS, PC3) compared with human normal cell lines (HaCaT, ADMSC); read-out: cancer selectivity index in cell cytotoxicity
value type: selectivity ratio at 24 h

Fill in the blank: the reported selectivity ratio at 24 h of `CC(=O)/C=C/c1ccc(O)c(O)c1` is ____.
45 to 60
